Where do these numbers come from? They come from patent US9617244B2.

Measured melting point of individual entries
Structures can show the parent of a compound that is named as a salt.

>>> meas_value("C=CCC1CNCCC1(O)C(c1cccc(Cl)c1)c1cc2cc(Cl)ccc2nc1OC (stereo not drawn)")
"150 to 152 °C"
>>> meas_value("COc1nc2ccc(Br)cc2cc1C(n1cccn1)C1(O)CCNC(Cc2ccccc2)C1 (stereo not drawn) (as salt: fumarate)")
"> 260 °C"
>>> meas_value("O=c1[nH]c2ccc(Br)cc2cc1C(c1ccc(Cl)cc1)C1(O)CCNC(Cc2ccc(F)c(F)c2)C1 (stereo not drawn) (as salt: hydrochloride) [Compound 126]")
"> 260 °C"
>>> meas_value("CS(=O)(=O)c1ccc2[nH]c(=O)c(C(c3ccc(Cl)cc3)C3(O)CCNC(Cc4ccc(F)c(F)c4)C3)cc2c1 (stereo not drawn) (as salt: hydrochloride) [Compound 212]")
"> 250 °C"
>>> meas_value("O=c1[nH]c2ccc(Cl)cc2cc1C(c1ccc(Cl)cc1)C1(O)CCNCC1F (stereo not drawn) (as salt: hydrochloride)")
"> 250 °C"

Request: Field request: melting point | item: COc1nc2ccc(Cl)cc2cc1C(c1ccc(Cl)cc1)C1(O)CCNC(Cc2ccc(F)cc2)C1 (stereo not drawn) (as salt: fumarate) [Compound 346]
Result: 151 to 153 °C
